The origin of these recorded values is patent US20220144936A1.

Biological target: recombinant human IL17A/F dimer protein (SinoBiological, Inc., CT047-HNAE) (human) (UniProt Q16552)
Sequence (Q16552 24-155 limits assumed, chain 1 of 2): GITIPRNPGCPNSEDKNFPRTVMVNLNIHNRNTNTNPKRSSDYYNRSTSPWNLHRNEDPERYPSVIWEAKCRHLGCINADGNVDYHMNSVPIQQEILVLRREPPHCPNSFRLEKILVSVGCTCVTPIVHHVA
Sequence (Q96PD4 31-163 limits assumed, chain 2 of 2, further chain): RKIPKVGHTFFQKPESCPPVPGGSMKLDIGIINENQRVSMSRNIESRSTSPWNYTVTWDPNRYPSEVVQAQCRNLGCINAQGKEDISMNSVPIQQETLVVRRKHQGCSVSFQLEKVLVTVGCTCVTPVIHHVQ
Test: Octet (BLI), biotinylated IL17A/F, antibody 0.90-13.9 nM
readout: Kd

seq: COSENTYX (Norvatis, SHM12) (antibody)
result: 1.1 nM
